biological target: T1, recombinant human HER2 extracellular domain protein (human, UniProt P04626 23-652); assay: BLI, Protein A capture
T1 construct: range 23-652; Range is printed for the immunogen/panning protein; also called ErbB2; recombinant HER2 protein
Listing: koff of selected binders
Provide the reading as a plain figure in s⁻¹.

Hu2126-H2K1-L71-H72b-Mu17 (antibody, IgG1, V domains shown, IgG1/Cκ; also called 7172b-Mu17) VH: QVQLVQSGSELKKPGASVKVSCKASGYTFTDYSMHWVRQAPGQGLEWMGWINTGTGEPTYADDFKGRFTISRDTSKSTAYLQISSLKAEDTAVYYCVRVGRYDYAMDYWGQGTTVTVSS VL: DIQMTQSPSSLSASVGDRVTITCRASQDVYTAVAWYQQKPGKAPKLLINSASSRPTGVPSRFSGSGSGTDFTLTISSLQPEDFATYYCQQYYSTPPTFGGGTKVEIK    0.000276
Hu2126-H2K1-L71-H72b-Mu11 (antibody, IgG1, V domains shown, IgG1/Cκ; also called 7172b-Mu11) VH: QVQLVQSGSELKKPGASVKVSCKASGYTFTDYSMHWVRQAPGQGLEWMGWINTGTGEPTYADDFKGRFTISRDTSKSTAYLQISSLKAEDTAVYYCVRVGRYDYAMDYWGQGTTVTVSS VL: DIQMTQSPSSLSASVGDRVTITCRASQDVYTAVAWYQQKPGKAPKLLINDASSRPTGVPSRFSGSGSGTDFTLTISSLQPEDFATYYCQQYYSTPPTFGGGTKVEIK    0.000482
Hu2126-H2K1-L71-H72b-Mu19 (antibody, IgG1, V domains shown, IgG1/Cκ; also called 7172b-Mu19) VH: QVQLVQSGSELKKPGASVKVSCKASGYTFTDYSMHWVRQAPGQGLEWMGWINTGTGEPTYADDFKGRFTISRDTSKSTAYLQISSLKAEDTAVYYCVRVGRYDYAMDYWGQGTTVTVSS VL: DIQMTQSPSSLSASVGDRVTITCRASQDVYTAVAWYQQKPGKAPKLLINYASSRPTGVPSRFSGSGSGTDFTLTISSLQPEDFATYYCQQYYSTPPTFGGGTKVEIK    0.000314
Hu2126-H2K1-L71-H72b-Mu14 (antibody, IgG1, V domains shown, IgG1/Cκ; also called 7172b-Mu14; Hu2126-7172b-Mu14) VH: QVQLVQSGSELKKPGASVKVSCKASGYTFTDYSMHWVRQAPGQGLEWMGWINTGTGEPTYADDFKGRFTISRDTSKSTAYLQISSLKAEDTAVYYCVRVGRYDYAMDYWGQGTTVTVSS VL: DIQMTQSPSSLSASVGDRVTITCRASQDVYTAVAWYQQKPGKAPKLLINLASSRPTGVPSRFSGSGSGTDFTLTISSLQPEDFATYYCQQYYSTPPTFGGGTKVEIK    8.31e-05
Hu2126-H2K1-L71-H72b-Mu10 (antibody, IgG1, V domains shown, IgG1/Cκ; also called 7172b-Mu10) VH: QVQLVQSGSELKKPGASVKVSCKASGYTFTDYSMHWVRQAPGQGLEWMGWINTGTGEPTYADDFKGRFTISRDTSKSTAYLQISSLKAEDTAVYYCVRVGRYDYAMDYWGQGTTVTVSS VL: DIQMTQSPSSLSASVGDRVTITCRASQDVYTAVAWYQQKPGKAPKLLINAASSRPTGVPSRFSGSGSGTDFTLTISSLQPEDFATYYCQQYYSTPPTFGGGTKVEIK    0.000356

Reported koff, binder Hu2126-H2K1-L71-H72b-Mu13 (antibody, IgG1, V domains shown, IgG1/Cκ; also called 7172b-Mu13) VH: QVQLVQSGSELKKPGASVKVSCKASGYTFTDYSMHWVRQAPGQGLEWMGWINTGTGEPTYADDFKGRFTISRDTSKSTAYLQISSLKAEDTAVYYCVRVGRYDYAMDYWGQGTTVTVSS VL: DIQMTQSPSSLSASVGDRVTITCRASQDVYTAVAWYQQKPGKAPKLLINKASSRPTGVPSRFSGSGSGTDFTLTISSLQPEDFATYYCQQYYSTPPTFGGGTKVEIK : ____
0.000707

Request the reported koff associated with Hu2126-H2K1-L71-H72b-Mu16 (antibody, IgG1, V domains shown, IgG1/Cκ; also called 7172b-Mu16) VH: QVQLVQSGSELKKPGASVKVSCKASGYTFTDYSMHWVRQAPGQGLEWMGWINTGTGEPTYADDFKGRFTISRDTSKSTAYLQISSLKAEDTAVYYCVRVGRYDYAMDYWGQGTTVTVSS VL: DIQMTQSPSSLSASVGDRVTITCRASQDVYTAVAWYQQKPGKAPKLLINRASSRPTGVPSRFSGSGSGTDFTLTISSLQPEDFATYYCQQYYSTPPTFGGGTKVEIK
0.000578

Just for reference, patent EP4725969A1 is where these values come from.
